Tested on: HEK-293T
Test: Incucyte cell viability with HEK293T; note: filed as whole numbers so only -1 and 0 and 1 occur
Format: toxicity, cell-based
Settings: human, 18 h, 10 µM, compound concentration 10 uM, replicate number 1, timepoint 18 hours
observedProperty: Growth Rate
Note: the reply should be a number with no unit written.

Item under review: COc1ccc(S(=O)(=O)N2c3ccc(Cl)cc3[C@](O)(c3ccccc3Cl)[C@@H]2C(=O)N2CCC[C@H]2C(N)=O)cc1OC [RELCOVAPTAN] . Reported Growth Rate? 0

###

Tested on: Fibroblast
Experiment: Multiplex assay against human fibroblast
Assay type: toxicity, cell-based
Details: 24 h, 10 µM, compound concentration 10 uM, replicate 2
Quick rule for you: Total Cell Count at 90 or higher means criterion met, lower means criterion not met.

Check out these entries, answers already filled in.
molecule	measuredOn	assignedCategory
CCc1nn(CCCN2CCN(c3cccc(Cl)c3)CC2)c(=O)n1CCOc1ccccc1.Cl [NEFAZODONE HYDROCHLORIDE]	Fibroblast	criterion not met
Cc1c[nH]c2nccc(Oc3c(F)cc(Nc4cc(Cl)nc(N)n4)cc3F)c12	Fibroblast	criterion not met
C=CC(=O)Nc1ccc2[nH]c(=O)n(C3CCN(Cc4ccc(-c5nc6cc[nH]c(=O)c6cc5-c5ccccc5)cc4)CC3)c2c1	Fibroblast	criterion met

Determine whether this molecule has Total Cell Count no lower than 90: CCc1ccc(OCc2ccccc2C(=O)Nc2ccc3nc(C)cc(N)c3c2)cc1.Cl criterion not met

Now the molecule C=CC(=O)Nc1cccc(Sc2nc(Nc3ccc(N4CCN(C)CC4)cc3)ncc2Cl)c1 criterion met

Now the molecule Cc1ccc2c(c1)c1c(n2CCc2ccc(C)nc2)CCN(C)C1 [LATREPIRDINE] criterion met

###

Test system: U2OS
Assay: Multiplex assay against U2OS
Type: toxicity, cell-based
Details: human, 48 h, 10 µM, compound concentration 10 uM, replicate 1
Quick rule for you: Population Tubulin-Different-Phenotype (%) at 80% or higher means Criterion met, lower means Criterion not met.

molecule	assignedCategory
Cl.O=C(O)c1cc(-c2ccc(C3CCNCC3)cc2)c2ccc(-c3ccc(C(F)(F)F)cc3)cc2c1	Criterion not met
CC(C)Oc1ccccc1C(=O)Nc1ccccc1C(=O)Nc1cccc(S(=O)(=O)C(F)(F)F)c1	Criterion met
O=C(c1cc2c(cc1F)OC(c1ccc(F)cc1)(c1ccc(Cl)cc1Cl)O2)N1CCOCC1 (stereo not drawn)	Criterion met
CC(C)OC(=O)N1CCC(Oc2ncnc3c2cnn3-c2ccc(S(C)(=O)=O)cc2F)CC1	Criterion not met
COc1ccccc1CN[C@H]1C2CCN(CC2)[C@H]1C(c1ccccc1)c1ccccc1 [CP-96345]	Criterion not met

Determine whether this molecule has Population Tubulin-Different-Phenotype (%) no lower than 80%: COc1ccc(-c2ccc3ncc4c(c3c2)n(-c2ccc(N3CCNCC3)c(C(F)(F)F)c2)c(=O)n4C)cn1.O=C(O)/C=C\C(=O)O [BGT-226] Criterion met

Now the molecule CC1=C(C(=O)Nc2cc3cn[nH]c3cc2F)C(c2ccc(C(F)(F)F)cc2)CC(=O)N1 (stereo not drawn) Criterion not met

Now the molecule COc1cc2ncn(-c3cc(OCc4ccccc4C(F)(F)F)c(C(N)=O)s3)c2cc1OC [GW843682X] Criterion met

###

Test system: HEK-293T
Assay: Incucyte cell viability with HEK293T; note: filed as whole numbers so only -1 and 0 and 1 occur
Assay type: toxicity, cell-based
Settings: human, 6 h, 10 µM, compound concentration 10 uM, replicate number 2, timepoint 6 hours
observedProperty: Growth Rate

compound	Growth Rate
COc1ccc(-c2ccc3cc(C(=O)O)ccc3c2)cc1C12CC3CC(CC(C3)C1)C2	0
CC(C)(O)c1ccccc1CC[C@@H](SCC1(CC(=O)[O-])CC1)c1cccc(/C=C/c2ccc3ccc(Cl)cc3n2)c1.[Na+] [MONTELUKAST SODIUM]	0
O=C(NCC(=O)N1CCCC1)Nc1ccc2cnccc2c1	0
Cl.O=C(O)c1cc(-c2ccc(C3CCNCC3)cc2)c2ccc(-c3ccc(C(F)(F)F)cc3)cc2c1	1
C[C@H](c1ccc(F)cc1)N(Cc1cccc(C(=O)O)c1)C(=O)c1cnc2ccccc2c1	1
C[C@H](N)COC(=O)[C@@H](CCCCN)NC(=O)Cc1c(-c2ccc3ccccc3c2)[nH]c2c1ccc1ccccc12	0

Item under review: Cc1cc(C(C)(C)C)c(O)c(C)c1CC1=NCCN1.Cl [OXYMETAZOLINE HYDROCHLORIDE] . Reported Growth Rate? 0

Now the compound O=C(Cc1ccccc1)Nc1nc2ccc(Cl)cc2c2nc(-c3ccco3)nn12 1

Now the compound O=C(N[C@@H](C1CC1)C(F)(F)F)c1cc(-c2cnn3cc(-c4ccc(F)cc4)cnc23)cs1 1
